target: Luciferin 4-monooxygenase (Photinus pyralis); test: Primary firefly luciferase (FLuc) qHTS assay for identification of artifact compounds. (AID 1845220); conditions: purified firefly luciferase, luminescence, 5 min; series mostly up to 54.1 µM; note: nearly all actives have a fitted effect of over 60% in size;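 for activity change, negative = inhibition: plate controls were DMSO vehicle for no effect and no enzyme for full effect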
The source made the active and inactive calls. Calls come from the whole dose curve; as a rule, active = well fitted inhibition curve with a large enough effect; inconclusive = small, poorly fitted or top-dose-only effect; inactive = flat fitted curve, though single readings scatter.
reported-endpoint: activity change, negative = inhibition

molecule	activity change, negative = inhibition
C=C(C(=O)O)C1CC(OC(=O)CC(C)CC)C2(C)CCCC(=C)C2C1 (stereo unspecified)	inactive
CC(=O)O[C@@H]1[C@@H](O)[C@H](C)O[C@@H](O[C@H]2[C@@H]3C=CO[C@@H](O[C@@H]4O[C@H](CO)[C@@H](O)[C@H](O)[C@H]4OC(C)=O)[C@@H]3[C@@]3(CO)O[C@@H]23)[C@@H]1OC(=O)/C=C/c1ccc(O)cc1	inactive
COc1ccc2c(c1)N1C(=O)C[C@@]34C=CC[N@+]5([O-])CC[C@H]2[C@H](CC3)[C@@]145	inactive
C=C1C2CCC3CC2(CC(O)C2(O)C1CC(OC1OC(CO)C(O)C(O)C1O)C2(C)C)CC3(C)O (stereo unspecified)	inactive
COC(=O)C1=CO[C@@H](O[C@@H]2O[C@H](CO)[C@@H](O)[C@H](O)[C@H]2O)[C@H]2[C@@H]1[C@H](O)C[C@]2(C)O	inactive

Shifting focus to the molecule that follows.
activity change, negative = inhibition in this record for `COc1cc(C)c(C(=O)O[C@@H]2[C@H](O)[C@@H](CO)O[C@H]2n2ccc(=O)[nH]c2=O)c(OC)c1` : inactive

###

system: CAOV3; experiment: Primary qHTS to identify gynecologic anti-cancer compounds using libraries of approved drugs and bioactive compounds (AID 1345084); conditions: Gynecologic cancer cell panel viability, ATPlite luminescence, 48 h; series mostly up to 57.5 µM; note: % is set by controls: 0 for no effect and ±100 for the full control effect; nearly all actives have a fitted effect of over 55% in size
Results filed as inconclusive are left out. Calls of active or inactive are those of the source. Calls come from the whole dose curve; as a rule, active = well fitted cell-killing curve with a large enough effect; inconclusive = small, poorly fitted or top-dose-only effect, or effect the other way; inactive = flat fitted curve, though single readings scatter. Where a SMILES comes first, the peptide text is derived from it. [ ]: non-standard residue; d: D form. ξ: configuration not given here. ξTyr(βOH) = NC(C(=O)O)C(O)c1ccc(O)cc1
reported-endpoint: activity change, negative = cytotoxicity

Examples with their reported activity change, negative = cytotoxicity follow.
molecule	reported-endpoint	data-value
COc1cccc(C)c1C(=O)O[C@@H]1C[C@H](O[C@H]2[C@H](O)C[C@H](O[C@@H]3CCC[C@H]4[C@H]3C=C[C@@H]3CCCC/C=C/[C@H]5C=C(C(=O)O)[C@@H](C)C[C@@]56OC(=O)C(=C6O)OC(=O)[C@@]34C)O[C@@H]2C)O[C@H](C)[C@H]1O	activity change, negative = cytotoxicity	3.73% [at 11.6 µM] (inactive)
CC[C@@H]1[C@H]2CCCCN3C(=O)C[C@H]([C@@H]4[C@H]1OC(=O)[C@H]4C)[C@@H]23	activity change, negative = cytotoxicity	inactive
COc1cnc(-n2cnc(C)n2)c2[nH]cc(C(=O)C(=O)N3CCN(C(=O)c4ccccc4)CC3)c12	activity change, negative = cytotoxicity	inactive
CC(C)=CC[C@H]1O[C@]2(O)C([C@H]3CCC4[C@@]5(C)CC[C@H](O[C@@H]6O[C@H](CO)[C@H](O)[C@H](O[C@@H]7O[C@H](CO)[C@@H](O)[C@H](O)[C@H]7O)[C@H]6O[C@@H]6O[C@@H](C)[C@H](O)[C@@H](O)[C@H]6O)C(C)(C)C5CC[C@@]4(C)[C@]3(C)[C@H]2O)[C@@]1(C)O (stereo partly specified)	activity change, negative = cytotoxicity	7.68% [at 11.6 µM] (inactive)
CC(=O)O[C@@H]1C(=O)C(C)=C(CCC(C)CC(=O)O)[C@@]2(C)CCCC(C)(C)C12 (stereo partly specified)	activity change, negative = cytotoxicity	inactive
C=C1CC[C@@]2(OC1)O[C@H]1CC3[C@@H]4CC=C5C[C@H](O[C@H]6OC[C@@H](O)C(O)[C@@H]6O[C@@H]6O[C@@H](C)[C@H](O)[C@@H](O[C@@H]7O[C@H](CO)[C@@H](O)[C@H](O)[C@H]7O)[C@H]6O)C[C@@H](O)[C@]5(C)C4CC[C@]3(C)[C@H]1[C@@H]2C (stereo partly specified)	activity change, negative = cytotoxicity	-11% [at 11.6 µM] (inactive)
C=C1C2CCC3CC2(CC(O)C2(O)C1CC(OC1OC(CO)C(O)C(O)C1O)C2(C)C)CC3(C)O (stereo unspecified)	activity change, negative = cytotoxicity	inactive
COc1ccc(OC)c(C2C(C#N)=C(N)Oc3n[nH]c(-c4ccc5ccccc5c4)c32)c1 (stereo unspecified)	activity change, negative = cytotoxicity	inactive

activity change, negative = cytotoxicity in this record for C=C1C(O)CC2C(C(=O)O)=COC(O[C@@H]3O[C@H](COC(=O)c4ccc(O)cc4)[C@@H](O)[C@H](O)[C@H]3O)C12 (stereo partly specified) : inactive

activity change, negative = cytotoxicity in this record for `COc1ccc2c(c1)C=C1Cn3c-2c(C2CCCCC2)c2ccc(cc23)C(=O)NS(=O)(=O)N(C)CCOCCN(C)C1=O` : inactive

activity change, negative = cytotoxicity in this record for `COC(=O)C1=CO[C@@H](O[C@@H]2O[C@H](CO)[C@@H](O)[C@H](O)[C@H]2O)[C@H]2[C@@H]1[C@H](O)C[C@]2(C)O` : inactive

activity change, negative = cytotoxicity in this record for CC1OC(OC2C(OC3C(O[C@H]4CC[C@@]5(C)C(CC[C@]6(C)C5C(=O)CC5=C7CC(C)(C)CC(O)[C@]7(C)CC[C@]56C)C4(C)C)OC(C(=O)O)C(O)C3O)OCC(O)C2O)C(O)C(O)C1O (stereo partly specified) : 18.5% [at 11.6 µM] (inactive)

activity change, negative = cytotoxicity in this record for C=C1CC[C@]2(C(=O)O[C@@H]3O[C@H](CO)[C@@H](O)[C@H](O)[C@H]3O)CC[C@]3(C)C(=CCC4[C@@]5(C)C[C@H](O)[C@@H](O[C@@H]6O[C@H](C(=O)O)[C@@H](O)[C@H](O)[C@H]6O)[C@](C)(C=O)C5CC[C@]43C)C2C1 (stereo partly specified) : -2.86% [at 11.6 µM] (inactive)

activity change, negative = cytotoxicity in this record for CC(C)=CCC[C@](C)(O[C@@H]1O[C@H](CO[C@@H]2O[C@@H](CO)[C@H](O)[C@H]2O[C@@H]2OC[C@@H](O)[C@H](O)[C@H]2O)[C@@H](O)[C@H](O)[C@H]1O)[C@H]1CC[C@]2(C)[C@@H]1[C@H](O)CC1[C@@]3(C)CC[C@H](O[C@@H]4O[C@H](CO)[C@@H](O)[C@H](O)[C@H]4O[C@@H]4O[C@H](CO)[C@@H](O)[C@H](O)[C@H]4O)C(C)(C)C3CC[C@]12C (stereo partly specified) : 9.01% [at 6.55 µM] (inactive)

activity change, negative = cytotoxicity in this record for `NCCCCN(Cc1nc2ccccc2[nH]1)[C@H]1CCCc2cccnc21` : inactive

activity change, negative = cytotoxicity in this record for `O=C(/C=C/c1ccc(O)cc1)O[C@@H]1C[C@@](O)(C(=O)O)C[C@@H](O)[C@@H]1O` : inactive

activity change, negative = cytotoxicity in this record for CC(C)C1NC(=O)CNC(=O)C2CCCN2C(=O)C(Cc2c[nH]c3ccccc23)NC(=O)CNC(=O)C(C(O)c2ccc(O)cc2)NC(=O)CNC1=O (stereo unspecified) (cyclo(G[ξTyr(βOH)]GWPGV); configuration not given here) : inactive

activity change, negative = cytotoxicity in this record for `COC(=O)c1ccccc1O[C@@H]1O[C@H](CO[C@@H]2OC[C@@H](O)[C@H](O)[C@H]2O)[C@@H](O)[C@H](O)[C@H]1O` : inactive

activity change, negative = cytotoxicity in this record for CC1(C)CC[C@]2(C(=O)O[C@@H]3O[C@H](CO)[C@@H](O)[C@H](O)[C@H]3O)CC[C@]3(C)C(=CCC4[C@@]5(C)CC[C@H](O[C@@H]6O[C@H](C(=O)O)[C@@H](O)[C@H](O)[C@H]6OC6OC(CO)C(O)C(O)C6O)C(C)(C)C5CC[C@]43C)[C@@H]2C1 (stereo partly specified) : 8.5% [at 11.6 µM] (inactive)

activity change, negative = cytotoxicity in this record for `OC[C@H]1O[C@@H](O[C@H]2[C@H](O)[C@@H](CO)O[C@@H](OCc3ccccc3)[C@@H]2O[C@@H]2OC[C@](O)(CO)[C@H]2O)[C@H](O)[C@@H](O)[C@@H]1O` : inactive

activity change, negative = cytotoxicity in this record for `C/C=C1/[C@H](O[C@@H]2O[C@H](CO)[C@@H](O)[C@H](O)[C@H]2O)OC=C(C(=O)OC)[C@H]1CC(=O)OCCc1ccc(O)c(O)c1` : inactive

###

test system: Nanoluciferase (engineered Oplophorus gracilirostris luciferase); test: Primary Nanoluciferase (NLuc) qHTS assay for identification of artifact compounds. (AID 1845222); conditions: NLuc-conditioned medium, Nano-Glo luminescence, 5 min; series mostly up to 54.1 µM;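 note: NLuc secreted into diluted conditioned medium of S16 cells; 0% = DMSO and -100% = no enzyme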
Active and inactive are the calls of the source. Calls come from the whole dose curve; as a rule, active = well fitted inhibition curve with a large enough effect; inconclusive = small, poorly fitted or top-dose-only effect; inactive = flat fitted curve, though single readings scatter.
reported-endpoint: activity, negative = inhibition

Examples with their reported activity, negative = inhibition follow.
compound	activity, negative = inhibition
C=C(CC/C=C(\C)C(=O)O)C1(O)CC=C(C)CC1 (configuration not stated)	inactive
C=C1[C@H](OC(C)=O)[C@H]2[C@@H](OC(C)=O)C(C)C[C@]2(OC(C)=O)C(=O)[C@H](C)/C=C/C(C)(C)C(=O)[C@H](OC(=O)C(C)C)[C@H]1OC(C)=O (some centres not stated)	inactive
CC(=O)O[C@@H](C[C@@H]1C=C(C)C(=O)O1)[C@H](C)[C@H]1CCC2[C@@]3(C)CC[C@H](O[C@@H]4O[C@H](CO)[C@@H](O)[C@H](O)[C@H]4O[C@@H]4O[C@@H](C)[C@H](O)[C@@H](O)[C@H]4O)C(C)(C)C3CC[C@@]2(C)[C@@]12COC(=O)C2 (some centres not stated)	-4.12% [at 11.6 µM] (inactive)
CC1=C2CC(=O)C(C)CC/C=C(\C)CC2(O)OC1=O (configuration not stated)	inactive
COc1c2c(c(C)c3c1C(=O)OC3)OC1(C)CC(O)C34OC(OC)(CC(O)C3(C)C1C2)OC4(C)C (configuration not stated)	inactive

activity, negative = inhibition in this record for `CCOc1ncc(S(=O)(=O)N2CCN(CC)CC2)cc1-c1nc2c(CC)n(CCOC)nc2c(=O)[nH]1` : inactive

activity, negative = inhibition in this record for CC(=O)OCC1OC(OC2COC(OC3COC(OC4C(OC5C(CO)OC(OC6CCC7(C)C(CCC8(C)C7CC=C7C9CC(C)(C)CCC9(C(=O)OC9OC(CO)C(O)C(O)C9OC9OCC(OC%10OCC(O)(CO)C%10O)C(O)C9O)C(O)CC78C)C6(C)C)C(O)C5O)OCC(O)C4O)C(O)C3O)C(O)C2O)C(OC(=O)/C=C/c2ccccc2)C(O)C1OC(C)=O (configuration not stated) : 4.35% [at 6.45 µM] (inactive)
